system: UniProt P36969
Sequence (whole entry): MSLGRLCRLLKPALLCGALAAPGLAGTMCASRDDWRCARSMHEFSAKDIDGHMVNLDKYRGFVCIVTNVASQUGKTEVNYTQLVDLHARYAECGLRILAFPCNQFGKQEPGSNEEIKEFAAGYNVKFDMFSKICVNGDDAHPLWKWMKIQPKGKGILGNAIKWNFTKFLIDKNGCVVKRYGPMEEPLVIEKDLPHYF
measurement description: Inhibition of GPX4 (unknown origin) at 1 uM incubated for 1 hrs in presence of glutathione and glutathione reductase by microplate reader analysis
readout kind: inhibition (%)
Express it in %; write the number only.

Q) I am curious: what inhibition value has been reported for "COc1ccc(N(C(=O)CCl)c2ccc3scnc3c2)cc1Cl" ?
A) 42.4

Q) Field entry: "COc1ccc(N(C(=O)CCl)c2ccc3c(c2)C(=O)CCC3)cc1Cl"
A) 38.2

Q) Field entry: "COc1cc(N(C(=O)CBr)c2ccc3c(c2)OCCO3)cc(OC)c1F"
A) 97.4

Q) Field entry: "O=C(CCl)N(c1ccc2c(c1)OCCO2)c1ccc2scnc2c1"
A) 28.4

Q) Field entry: "COc1cc(OC)cc(N(C(=O)CBr)c2ccc3c(c2)OCCO3)c1"
A) 53.2

Q) Field entry: "COc1ccc(N(C(=O)CCl)c2ccc(Cl)cc2)cc1Cl"
A) 15.6

Q) Field entry: "COc1ccc(CN(C(=O)CCl)c2ccc(Cl)cc2)cc1Cl"
A) 13.6
